- assay-notes: NCI Yeast Anticancer Drug Screen. Data for the mlh1 rad18 strain (AID 175)
- assay-context: S. cerevisiae mlh1 rad18 strain growth inhibition, hits give high values; at 50.0 µM unless noted
About 79,000 compounds went through this panel and 15% of them were active in at least one assay; those are over-represented in the sample as a whole.
readout-label: growth inhibition (%)
I only need the number, in %, no unit after it.

Need growth inhibition of `O=C(O)/C(=C/c1cccc(Cl)c1)c1ccc(Cl)cc1` , thanks.
-0.75

Now consider `Nc1ccccc1C1CCCCC1` and answer again.
26.6

Now consider CC12CCC(=O)C=C1CCCC2=O (configuration not stated) and answer again.
-3.4

Now consider `Cn1cc(Cc2ccccc2)c(=O)[nH]c1=O` and answer again.
7.6

Now consider `Cc1[nH]c(=O)cc2c1[nH]c1ccccc12` and answer again.
-1.05

Now consider `CC(C)(C)C1CCC2(CC1)CCN(CCCN1CCOCC1)CC2` and answer again.
97.8

Now consider O=[N+]([O-])c1ccc(CS(=O)Cc2ccccc2)cc1 (configuration not stated) and answer again.
31.7

Now consider `Cc1ccc(S(=O)(=O)N(C)CCCC#N)cc1` and answer again.
-19.6

Now consider `CCc1ccc(NS(=O)(=O)c2ccccc2[N+](=O)[O-])cc1` and answer again.
65.5

Now consider `NCCS(=O)(=O)O` and answer again.
-6.95

Now consider CC1=CP(=O)(c2ccccc2)CC1 (configuration not stated) (tested in a mixture with another compound) and answer again.
1.2

Now consider `C=C(C)C(=O)Oc1ccccc1/C=C/C(=O)CCCCCC` and answer again.
4.4

Now consider CC(C)(C)NC(=O)C(Br)c1ccccc1 (configuration not stated) and answer again.
16

Now consider `O=C(O)CNOCN1C(=O)c2ccccc2C1=O` and answer again.
14.4

Now consider CC1SCc2nc3ccccc3n21 (configuration not stated) and answer again.
-35.5

Now consider [N-]=[N+]=NC1(N=[N+]=[N-])C(=O)Nc2ccccc2C1=O (configuration not stated) and answer again.
12.6

Now consider `Cc1cc(C(C)(C)C)cc(CNC2CCCCC2)c1O` and answer again.
10.2

Now consider `O=C(NCN1CCOCC1)NC(=O)NCN1CCOCC1` and answer again.
-3.95

Now consider CC1CC(=O)CC(C)(C)N1 (configuration not stated) and answer again.
-7.25

Now consider `N#Cc1c(N2CCCC2)nsc1Nc1ccc(F)cc1` and answer again.
-9

Now consider `O=c1[nH]c2ccc(O)cc2o1` and answer again.
22.2

Now consider `CNS(=O)(=O)c1ccc(C)c(C)c1` and answer again.
12.7

Now consider `C[N+]1(Cc2ccco2)CCCCC1` and answer again.
-6.85

Now consider `O=C1N=C2Sc3ccc4ccccc4c3N2C1=O` and answer again.
11.2

Now consider `CC(C)NC(=O)OCc1c(COC(=O)NC(C)C)c(-c2ccccc2)n(C)c1-c1ccccc1` and answer again.
32.8

Now consider `CCc1ccccc1NC(=O)C(=O)CC(=O)c1sc(Nc2ccccc2Cl)nc1C` and answer again.
15.1

Now consider `Cc1[nH]nc2c1C(=O)C=C(N(CCO)c1ccccc1)C2=O` and answer again.
-6.55

---

- assay-notes: NCI Yeast Anticancer Drug Screen. Data for the mec2-1 strain (AID 157)
- assay-context: S. cerevisiae mec2-1 strain, hits give high values; at 50.0 µM unless noted
Compounds without any hit were thinned out: in the full panel of roughly 79,000, 15% have a hit.
readout-label: growth inhibition (%)
I only need the number, in %, no unit after it.

Need growth inhibition of CC(=O)[CH-]C(=O)c1ccccc1.CC(=O)[CH-]C(=O)c1ccccc1.CC(C)CCCC(C)[C@H]1CCC2[C@@H]3CCC4C[C@@H]([O-])CC[C@]4(C)C3CC[C@@]21C.CC(C)CCCC(C)[C@H]1CCC2[C@@H]3CCC4C[C@@H]([O-])CC[C@]4(C)C3CC[C@@]21C.Cl.[Ti+4] (some centres not stated) , thanks.
1.25

Now consider COc1cc(CC(C(=O)O)C(C)C(=O)c2ccc3c(c2)OCO3)cc(OC)c1OC (configuration not stated) and answer again.
0.1

Now consider Cc1ccc(S(=O)(=O)NC(=O)NC(C)C(=O)O)cc1 (configuration not stated) and answer again.
-5.65

Now consider `CCOC(=O)c1nc(N)nc(N)c1-c1ccc(Cl)cc1` and answer again.
10.7

Now consider `Cc1cc(C)c(CC(C)C)c(C)c1` and answer again.
6.25

Now consider `O=C(CCCN1CCC2(CC1)CC(=O)N(N1CCOCC1)C2=O)c1ccc(F)cc1` and answer again.
6.1

Now consider `Nc1nc(NCCO)c(NC=O)c(=O)[nH]1` and answer again.
6

Now consider `COc1ccc2nc(C(=O)c3ccccc3)c(C)cc2c1` and answer again.
-28.5

Now consider `Cc1cc2nc3c(=O)[nH]c(=O)nc-3n(C/C=N/NC(N)=S)c2cc1C` and answer again.
-7.65

Now consider `COc1ccc2c(O)c(Oc3ccccc3)c(=O)oc2c1` and answer again.
5

Now consider `C[N+]1(Cc2csc(-c3ccc(Cl)cc3)n2)CCOCC1` and answer again.
-25.6

Now consider `COc1cc(C(=O)NO)ccc1O` and answer again.
-12.6

Now consider CCCCCCCCCCCC[N+](C)(C)C(C)Cc1ccccc1 (configuration not stated) and answer again.
99.5

Now consider `CCO[C@@H]1OC(=O)[C@H]2C(c3ccc(Cl)cc3)=NO[C@@H]12` and answer again.
-33.7

Now consider `CC1=NN(C(=O)c2ccccc2O)C(=O)/C1=C/c1ccccc1O` and answer again.
-11.8

Now consider `C=CCSCc1ccccc1` and answer again.
2.95

Now consider CC(O)C(O)C(O)C(O)c1nc2ccccc2[nH]1 (configuration not stated) and answer again.
-3.35

Now consider `Cc1cc(Cl)ccc1NC(=O)C(=O)Cc1ccc([N+](=O)[O-])c([N+](=O)[O-])c1CC(=O)C(=O)Nc1ccc(Cl)cc1C` and answer again.
-30.4

Now consider `CCC(=O)c1ccc(OC)cc1OC` and answer again.
1.25

Now consider Cc1nn(C(=O)c2ccc(Cl)cc2)c2c1C(c1ccc([N+](=O)[O-])cc1)SC(N)=N2 (configuration not stated) and answer again.
7.4

Now consider COC1CC(n2ccc(=O)[nH]c2=O)OC1CO (configuration not stated) and answer again.
-10.6

Now consider `O=C(O)COc1ccc(NC(=O)COc2ccc(Cl)c(Cl)c2)cc1` and answer again.
-10
